- Tested on: MOLM14;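 further: after 48 h exposure read by CellTiter-Glo luminescence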
- PROTOCOL_SUMMARY: cell viability relative to vehicle control; higher = less cytotoxic
- MEASUREMENT_PARAMETERS: 10 µM; SRSF2 genotype: SRSF2 wt/wt
Structures can show the parent of a compound that is named as a salt.
Provide the recorded cell viability for the entries that follow.
// return numeric value only (unit: %, not printed)

Request the reported cell viability associated with CC(=O)Oc1cc(C)c(OC(C)=O)c2ccccc12 [Menadiol Diacetate] 7.05

Request the reported cell viability associated with CN(C)c1ccc(C(=C2C=CC(=[N+](C)C)C=C2)c2ccc(N(C)C)cc2)cc1 0.09

Request the reported cell viability associated with C=C1/C(=C\C=C2/CCC[C@]3(C)[C@@H]([C@H](C)CCCC(C)C)CC[C@@H]23)C[C@@H](O)C[C@@H]1O 94.2

Request the reported cell viability associated with COC(=O)C1=C(C)NC(C)=C(C(=O)OCCN2CCN(C(c3ccccc3)c3ccccc3)CC2)C1c1cccc([N+](=O)[O-])c1 (stereo unspecified) [Manidipine dihydrochloride (CV-4093)] 57.7

Request the reported cell viability associated with CN[C@@H](C)C(=O)N[C@H](C(=O)N1CCC[C@H]1C(=O)N[C@H]1c2ccccc2C[C@H]1OCC#CC#CCO[C@@H]1Cc2ccccc2[C@@H]1NC(=O)[C@@H]1CCCN1C(=O)[C@@H](NC(=O)[C@H](C)NC)C1CCCCC1)C1CCCCC1 0.62

Request the reported cell viability associated with Cc1nc(NC(=O)N2CCC[C@H]2C(N)=O)sc1-c1csc(C(C)(C)C)n1 86.6

Request the reported cell viability associated with Cc1cc(O)c(-c2ccc([C@@H](C)CN)cc2)c2c1[nH]c(=O)c1sccc12 [OTS514 hydrochloride] 0.16

Request the reported cell viability associated with CC(C)c1nc(CN(C)C(=O)N[C@H](C(=O)N[C@@H](Cc2ccccc2)C[C@H](O)[C@H](Cc2ccccc2)NC(=O)OCc2cncs2)C(C)C)cs1 88.3

Request the reported cell viability associated with CCNC(=O)CCC/C=C\C[C@@H]1[C@@H](/C=C/[C@@H](O)CCc2ccccc2)[C@H](O)C[C@@H]1O 98.3

Request the reported cell viability associated with COc1ccc(CC(=O)Nc2nc3c(s2)CCc2ccccc2-3)cc1OC 76.5

Request the reported cell viability associated with CN1CCN(Cc2ccc(-c3cnc4[nH]cc(-c5ccc6[nH]ccc6c5)c4c3)cc2)CC1 0.4

Request the reported cell viability associated with Cc1cc(C)nc(NC(=S)N2CCN(Cc3ccc(C(F)(F)F)cc3)CC2)c1 86.6

Request the reported cell viability associated with Cc1nn(C)c2nc(NNC(=O)Nc3cc(Cl)nc(Cl)c3)cc(C(C)C)c12 83.8

Request the reported cell viability associated with Cn1c(O)c(C2=c3ccccc3=NC2=O)c2ccccc21 0.48

Request the reported cell viability associated with Cc1cc(N2CCCCC2)nc2ccccc12 109

Request the reported cell viability associated with c1cncc(CN2CCC(n3ncc4c(N5CCOCC5)nc(-c5ccc6[nH]ccc6c5)nc43)CC2)c1 25

---

- Tested on: MOLM14;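 further: after 48 h exposure read by CellTiter-Glo luminescence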
- PROTOCOL_SUMMARY: cell viability relative to vehicle control; higher = less cytotoxic
- MEASUREMENT_PARAMETERS: 10 µM; SRSF2 genotype: SRSF2 wt/wt
ENDPOINT_NAME: cell viability (%)
// return numeric value only (unit: %, not printed)

Request the reported cell viability associated with Cn1cc(-c2ccc3ncc(Cc4ccc5ncccc5c4)n3n2)cn1 101

Request the reported cell viability associated with COC(=O)[C@]12CCC(C)(C)C[C@H]1[C@H]1C(=O)C=C3[C@@]4(C)C=C(C#N)C(=O)C(C)(C)[C@@H]4CC[C@@]3(C)[C@]1(C)CC2 0.13

Request the reported cell viability associated with COCCCc1sc(-c2ccccc2)nc1C(=O)Nc1ccccc1-c1nc2cc(CN3CCCC3)cnc2s1 92.5

Request the reported cell viability associated with COc1ccc(-c2nc3cc(C4=NNC(=O)CC4C)ccc3[nH]2)cc1 (stereo not given) 83.6

Request the reported cell viability associated with Cc1cc(Nc2ncnc3ccc(-c4ccc(CNCCS(C)(=O)=O)o4)cc23)ccc1Oc1ccn2ncnc2c1 101

Request the reported cell viability associated with COc1ccc(COc2cc3oc(=O)c4cc(C(C)O)ccc4c3cc2OC)cc1 (stereo not given) 101

Request the reported cell viability associated with CN1CCN(c2ccc3nc(-c4c(N)c5c(F)cccc5[nH]c4=O)[nH]c3c2)CC1 [Dovitinib Dilactic acid (TKI258 Dilactic aci] 0.07

Request the reported cell viability associated with OC[C@H]1O[C@@H](c2ccc(F)c(Cc3cc4ccccc4s3)c2)[C@H](O)[C@@H](O)[C@@H]1O 99.4

Request the reported cell viability associated with CC(C)(Oc1ccc(Cl)cc1)C(=O)OCCOC(=O)c1cccnc1 [Etofibrate] 101

Request the reported cell viability associated with CNCCc1ccccn1 [Betahistine 2HCl] 99.8

Request the reported cell viability associated with COc1ccc(Cn2ccc3ccc(C(=O)NO)cc32)cc1 81.6

Request the reported cell viability associated with C[C@]12C=CC(=O)C=C1CC[C@@H]1[C@@H]2C(=O)C[C@@]2(C)[C@H]1CC[C@]2(O)C(=O)CO 107

Request the reported cell viability associated with Cc1cc(-c2ccc(/N=N/c3ccc4c(S(=O)(=O)O)cc(S(=O)(=O)O)c(N)c4c3O)c(C)c2)ccc1/N=N/c1ccc2c(S(=O)(=O)O)cc(S(=O)(=O)O)c(N)c2c1O 64.7

Request the reported cell viability associated with C/C(=C\C(=O)OCCCCCCCCC(=O)O)C[C@@H]1OC[C@H](C[C@@H]2O[C@H]2[C@@H](C)[C@H](C)O)[C@@H](O)[C@H]1O 103

Request the reported cell viability associated with C=C[C@@H]1C[C@]1(NC(=O)[C@@H]1C[C@@H](Oc2ncc(OC)c3ccc(Cl)cc23)CN1C(=O)[C@@H](NC(=O)OC(C)(C)C)C(C)(C)C)C(=O)NS(=O)(=O)C1CC1 97.9
